// provenance: ChEMBL document CHEMBL4002568

# assay system: Alkaline phosphatase, tissue-nonspecific isozyme (Bos taurus)
# Sequence (P09487 whole entry): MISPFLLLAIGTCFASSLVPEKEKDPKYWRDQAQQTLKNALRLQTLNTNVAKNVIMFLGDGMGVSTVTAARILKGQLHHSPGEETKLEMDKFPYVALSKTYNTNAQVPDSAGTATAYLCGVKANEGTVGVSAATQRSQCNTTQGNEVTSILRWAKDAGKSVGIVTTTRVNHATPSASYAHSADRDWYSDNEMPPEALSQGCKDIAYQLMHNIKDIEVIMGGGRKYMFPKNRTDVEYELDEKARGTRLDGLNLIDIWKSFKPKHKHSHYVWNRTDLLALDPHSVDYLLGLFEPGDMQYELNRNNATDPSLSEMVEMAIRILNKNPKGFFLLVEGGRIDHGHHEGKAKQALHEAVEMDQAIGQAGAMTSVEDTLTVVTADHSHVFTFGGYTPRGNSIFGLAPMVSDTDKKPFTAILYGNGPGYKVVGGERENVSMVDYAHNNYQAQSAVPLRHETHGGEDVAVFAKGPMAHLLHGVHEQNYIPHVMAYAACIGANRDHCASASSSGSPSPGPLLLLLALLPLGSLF
# IC50 annotations

Take a look at these entries with their results.
INSERT INTO assay_data (record_smiles, endpoint_value) VALUES
  ('Cc1ccc(-c2[nH]c3ccc([N+](=O)[O-])cc3c(=O)c2-c2ccc(C(F)(F)F)cc2)cc1', '2.69 µM'),
  ('CCCCCc1[nH]c2ccc([N+](=O)[O-])cc2c(=O)c1Br', '17.2 µM'),
  ('CCCCCc1cc(=O)c2cc([N+](=O)[O-])ccc2n1Cc1ccc(OC)cc1', '1.51 µM'),
  ('Cc1ccc(-c2[nH]c3ccc([N+](=O)[O-])cc3c(=O)c2Br)cc1', '6.47 µM');

For the next question, use this compound.
Note to self: IC50 recorded for Cc1ccc(-c2cc(=O)c3cc(N)ccc3[nH]2)cc1 was 19.4 µM

====

Assay read-out IC50; system under study: Intestinal-type alkaline phosphatase (Bos taurus, UniProt P19111).
Sequence (P19111 whole entry): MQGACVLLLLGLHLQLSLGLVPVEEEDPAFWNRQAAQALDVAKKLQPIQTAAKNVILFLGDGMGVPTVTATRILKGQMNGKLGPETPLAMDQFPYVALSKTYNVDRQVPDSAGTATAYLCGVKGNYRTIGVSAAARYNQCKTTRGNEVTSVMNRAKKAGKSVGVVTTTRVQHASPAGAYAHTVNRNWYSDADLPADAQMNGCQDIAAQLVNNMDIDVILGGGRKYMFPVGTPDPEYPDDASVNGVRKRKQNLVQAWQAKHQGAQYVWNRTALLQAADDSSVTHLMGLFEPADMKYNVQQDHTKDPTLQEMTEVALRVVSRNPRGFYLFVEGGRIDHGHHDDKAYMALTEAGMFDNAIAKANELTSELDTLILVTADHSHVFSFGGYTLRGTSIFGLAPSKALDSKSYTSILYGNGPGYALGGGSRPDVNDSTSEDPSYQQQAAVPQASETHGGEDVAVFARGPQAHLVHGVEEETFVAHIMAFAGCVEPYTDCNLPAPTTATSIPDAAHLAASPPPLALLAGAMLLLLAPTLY
Please state the figure in µM; there is no need to write the unit.

INSERT INTO assay_data (compound, assay_system, endpoint_value) VALUES
  ('COc1ccc(Cn2c(-c3ccc(C)cc3)c(-c3ccc(C(F)(F)F)cc3)c(=O)c3cc([N+](=O)[O-])ccc32)cc1', 'Intestinal-type alkaline phosphatase (Bos taurus, UniProt P19111)', 8.34),
  ('COc1ccc(Cn2c(-c3ccc(C)cc3)c(-c3cc(C)cc(C)c3)c(=O)c3cc([N+](=O)[O-])ccc32)cc1', 'Intestinal-type alkaline phosphatase (Bos taurus, UniProt P19111)', 28.7),
  ('COc1ccc(-c2c(-c3ccc(C)cc3)[nH]c3ccc(N)cc3c2=O)cc1', 'Intestinal-type alkaline phosphatase (Bos taurus, UniProt P19111)', 1.06),
  ('CCCCCc1c(Br)c(=O)c2cc([N+](=O)[O-])ccc2n1Cc1ccc(OC)cc1', 'Intestinal-type alkaline phosphatase (Bos taurus, UniProt P19111)', 122),
  ('Cc1ccc(-c2[nH]c3ccc(NC(=O)C(F)(F)F)cc3c(=O)c2-c2ccc(C)cc2)cc1', 'Intestinal-type alkaline phosphatase (Bos taurus, UniProt P19111)', 1.67);

Cc1ccc(-c2[nH]c3ccc([N+](=O)[O-])cc3c(=O)c2Br)cc1 tested on Intestinal-type alkaline phosphatase (Bos taurus, UniProt P19111) gave IC50: 12.1

Cc1ccc(-c2cc(=O)c3cc([N+](=O)[O-])ccc3[nH]2)cc1 tested on Intestinal-type alkaline phosphatase (Bos taurus, UniProt P19111) gave IC50: 6.25

COc1ccc(C(C)n2c(-c3ccc(C)cc3)cc(=O)c3cc([N+](=O)[O-])ccc32)cc1 (stereo unspecified) tested on Intestinal-type alkaline phosphatase (Bos taurus, UniProt P19111) gave IC50: 4.75

Cc1ccc(-c2[nH]c3ccc([N+](=O)[O-])cc3c(=O)c2-c2ccc(C(F)(F)F)cc2)cc1 tested on Intestinal-type alkaline phosphatase (Bos taurus, UniProt P19111) gave IC50: 4.38

COc1ccc(Cn2c(-c3ccc(C)cc3)c(-c3ccc(C)cc3)c(=O)c3cc([N+](=O)[O-])ccc32)cc1 tested on Intestinal-type alkaline phosphatase (Bos taurus, UniProt P19111) gave IC50: 2.92

CCCCCc1[nH]c2ccc([N+](=O)[O-])cc2c(=O)c1Br tested on Intestinal-type alkaline phosphatase (Bos taurus, UniProt P19111) gave IC50: 3.06

====

# IC50 annotations
# assay system: Alkaline phosphatase, tissue-nonspecific isozyme (Bos taurus)
Please state the figure in µM; there is no need to write the unit.

Take a look at these entries with their results.
INSERT INTO measurements (record_smiles, unit_descriptor, endpoint_value) VALUES
  ('Cc1ccc(-c2[nH]c3ccc(NC(=O)C(F)(F)F)cc3c(=O)c2-c2ccc(C)cc2)cc1', 'µM', 6.02),
  ('COc1ccc(Cn2c(-c3ccc(C)cc3)c(-c3cc(C)cc(C)c3)c(=O)c3cc([N+](=O)[O-])ccc32)cc1', 'µM', 4.74),
  ('COc1ccc(Cn2c(-c3ccc(C)cc3)cc(=O)c3cc([N+](=O)[O-])ccc32)cc1', 'µM', 133),
  ('COc1ccc(Cn2c(-c3ccc(C)cc3)c(Br)c(=O)c3cc([N+](=O)[O-])ccc32)cc1', 'µM', 4.22),
  ('CCCCCc1cc(=O)c2cc([N+](=O)[O-])ccc2[nH]1', 'µM', 44.8);

For the next question, use this compound.
CCc1ccc(-c2c(-c3ccc(C)cc3)n(Cc3ccc(OC)cc3)c3ccc([N+](=O)[O-])cc3c2=O)cc1 tested on Alkaline phosphatase, tissue-nonspecific isozyme (Bos taurus) gave IC50: 1.66
